- SYSTEM_UNDER_TEST: BCRP (Homo sapiens, UniProt Q9UNQ0)
- Sequence (Q9UNQ0 1-655): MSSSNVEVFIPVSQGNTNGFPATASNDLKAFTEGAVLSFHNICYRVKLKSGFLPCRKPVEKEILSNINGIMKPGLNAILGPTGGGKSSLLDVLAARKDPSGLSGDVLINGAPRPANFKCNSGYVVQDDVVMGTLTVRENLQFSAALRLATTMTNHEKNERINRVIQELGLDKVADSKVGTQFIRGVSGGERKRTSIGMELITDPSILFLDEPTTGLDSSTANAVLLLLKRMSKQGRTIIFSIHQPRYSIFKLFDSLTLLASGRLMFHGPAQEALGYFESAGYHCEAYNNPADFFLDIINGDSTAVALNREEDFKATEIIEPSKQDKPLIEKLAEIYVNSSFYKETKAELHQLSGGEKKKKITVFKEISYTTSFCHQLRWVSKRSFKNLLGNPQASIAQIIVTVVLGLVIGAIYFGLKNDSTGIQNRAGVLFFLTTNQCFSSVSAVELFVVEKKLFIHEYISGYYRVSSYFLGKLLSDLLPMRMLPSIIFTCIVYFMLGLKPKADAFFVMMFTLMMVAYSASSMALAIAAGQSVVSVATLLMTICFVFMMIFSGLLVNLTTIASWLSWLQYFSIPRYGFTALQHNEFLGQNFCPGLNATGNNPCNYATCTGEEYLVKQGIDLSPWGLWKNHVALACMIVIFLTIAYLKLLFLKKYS
- MEASUREMENT_PROTOCOL: bidirectional transport assay across hCMEC/D3 cell monolayer with or without Ko143
- TEST_CONDITIONS: human, pH 7.4, with Ko143 1 µM, Efflux ratio (ER), hCMEC/D3 with inhibitor Ko143, 15 μM; hCMEC/D3 monolayer; 1 μM Ko143
- Experimental: For transport assays, hCMEC/D3 cells were seeded on collagen type I‐coated Transwell inserts (polycarbonate 12‐well, pore size […]) (cat. no. CLS3460; Corning, NY, USA) at 80% confluency and cultured as described in section 2.5. […] Concentrations of ASMs were evaluated by HPLC or LC/MS. […] Fluorescence detection of lucifer yellow (excitation at 430 nm, and emission at 535 nm) was carried out with Infinite 200 PRO NanoQuant (Tecan, Zurich, Switzerland). […]
VALUE_KIND: efflux ratio at 2 h, 15 µM

- CC1(C)O[C@@H]2[C@@H](CO[C@@]3(COS(N)(=O)=O)OC(C)(C)O[C@@H]23)O1 [TPM, topiramate]: 1.16

---

- SYSTEM_UNDER_TEST: BCRP (Homo sapiens)
- MEASUREMENT_PROTOCOL: bidirectional transport assay across hCMEC/D3 cell monolayer with or without Ko143
- TEST_CONDITIONS: human, pH 7.4, with Ko143 1 μM, Efflux ratio (ER), hCMEC/D3 with inhibitor Ko143, 600 μM; hCMEC/D3 monolayer; 1 μM Ko143
VALUE_KIND: efflux ratio at 2 h, 600 μM

• CCCC(CCC)C(=O)O = 1.14

---

- SYSTEM_UNDER_TEST: BCRP (Homo sapiens)
- Sequence (Q9UNQ0 1-655): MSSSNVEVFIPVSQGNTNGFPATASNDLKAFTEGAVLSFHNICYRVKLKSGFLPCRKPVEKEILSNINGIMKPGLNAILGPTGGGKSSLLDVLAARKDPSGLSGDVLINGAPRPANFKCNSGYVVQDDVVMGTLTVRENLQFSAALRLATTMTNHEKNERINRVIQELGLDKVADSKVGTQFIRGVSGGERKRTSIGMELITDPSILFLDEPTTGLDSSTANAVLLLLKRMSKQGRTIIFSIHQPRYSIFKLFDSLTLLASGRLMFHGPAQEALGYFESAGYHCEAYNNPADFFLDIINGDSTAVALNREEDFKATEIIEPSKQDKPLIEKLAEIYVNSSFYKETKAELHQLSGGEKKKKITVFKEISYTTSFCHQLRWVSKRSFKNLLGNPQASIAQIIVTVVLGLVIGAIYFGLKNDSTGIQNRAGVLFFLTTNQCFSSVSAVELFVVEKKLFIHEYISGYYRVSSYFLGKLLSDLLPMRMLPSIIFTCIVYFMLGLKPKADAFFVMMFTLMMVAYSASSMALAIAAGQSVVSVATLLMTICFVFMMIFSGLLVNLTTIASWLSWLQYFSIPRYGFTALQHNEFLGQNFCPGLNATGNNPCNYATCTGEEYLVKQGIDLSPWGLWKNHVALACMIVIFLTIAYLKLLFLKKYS
- MEASUREMENT_PROTOCOL: bidirectional transport assay across hCMEC/D3 cell monolayer with or without Ko143
- TEST_CONDITIONS: human, pH 7.4
VALUE_KIND: Papp A→B at 2 h, 300 µM (×10⁻⁶ cm/s)

• CCCC(CCC)C(=O)O = 0.19

---

- SYSTEM_UNDER_TEST: BCRP (Homo sapiens, UniProt Q9UNQ0)
- MEASUREMENT_PROTOCOL: bidirectional transport assay across hCMEC/D3 cell monolayer with or without Ko143
- TEST_CONDITIONS: human, pH 7.4, with Ko143 1 μM
VALUE_KIND: Papp A→B at 2 h, 21 μM (×10⁻⁶ cm/s)

• NC(=O)N1c2ccccc2C=Cc2ccccc21 [CBZ, carbamazepine] = 4.72

---

- SYSTEM_UNDER_TEST: BCRP (Homo sapiens)
- MEASUREMENT_PROTOCOL: bidirectional transport assay across hCMEC/D3 cell monolayer with or without Ko143
- TEST_CONDITIONS: human, pH 7.4, Efflux ratio (ER), hCMEC/D3 without inhibitor Ko143, 21 μM; hCMEC/D3 monolayer
VALUE_KIND: efflux ratio at 2 h, 21 μM

• NC(=O)N1c2ccccc2C=Cc2ccccc21 [CBZ, carbamazepine] = 1.23

---

- SYSTEM_UNDER_TEST: BCRP (Homo sapiens, UniProt Q9UNQ0)
- Sequence (Q9UNQ0 1-655): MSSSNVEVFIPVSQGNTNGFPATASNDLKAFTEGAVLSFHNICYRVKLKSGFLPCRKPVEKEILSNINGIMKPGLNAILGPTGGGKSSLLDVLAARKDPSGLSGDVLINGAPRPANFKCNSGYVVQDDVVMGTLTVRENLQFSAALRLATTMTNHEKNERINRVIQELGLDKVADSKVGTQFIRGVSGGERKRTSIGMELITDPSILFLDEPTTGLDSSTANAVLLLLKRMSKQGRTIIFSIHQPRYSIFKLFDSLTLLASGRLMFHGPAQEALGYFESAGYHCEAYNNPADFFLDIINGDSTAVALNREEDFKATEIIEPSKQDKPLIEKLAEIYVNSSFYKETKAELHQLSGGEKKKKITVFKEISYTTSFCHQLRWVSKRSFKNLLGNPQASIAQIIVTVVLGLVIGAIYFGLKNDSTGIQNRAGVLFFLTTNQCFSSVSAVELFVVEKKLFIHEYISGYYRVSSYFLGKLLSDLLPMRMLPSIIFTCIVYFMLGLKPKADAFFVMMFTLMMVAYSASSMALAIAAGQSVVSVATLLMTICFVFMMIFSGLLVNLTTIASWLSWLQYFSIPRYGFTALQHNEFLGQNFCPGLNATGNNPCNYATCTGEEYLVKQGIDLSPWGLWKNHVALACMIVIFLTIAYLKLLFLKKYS
- MEASUREMENT_PROTOCOL: bidirectional transport assay across hCMEC/D3 cell monolayer with or without Ko143
- TEST_CONDITIONS: human, pH 7.4, with Ko143 1 μM
VALUE_KIND: Papp B→A at 2 h, 80 μM

* O=C1NC(=O)C(c2ccccc2)(c2ccccc2)N1 [PHT, phenytoin] | 2.12 ×10⁻⁶ cm/s

---

- SYSTEM_UNDER_TEST: BCRP (Homo sapiens)
- MEASUREMENT_PROTOCOL: bidirectional transport assay across hCMEC/D3 cell monolayer with or without Ko143
- TEST_CONDITIONS: human, pH 7.4
VALUE_KIND: Papp A→B at 2 h, 40 μM (×10⁻⁶ cm/s)

- O=C1NC(=O)C(c2ccccc2)(c2ccccc2)N1 [PHT, phenytoin]: 2.12

Origin of values: paper PMC12555108
